system: NCI-H295R; assay: Cytotoxicity against human H295R cells by MTT assay; format: functional, cell-based
experimental endpoint: IC50 (µM)
Numeric only. Scale: µM

Prompt line: Item under review: CCN(CC)CCn1ccc2c3c(O)cc(-c4ccccc4)nc3ccc21 . Reported IC50?
Response line: 6

Prompt line: Item under review: O=c1cc(-c2ccccc2)[nH]c2ccc3[nH]ccc3c12 . Reported IC50?
Response line: 0.4

Prompt line: Item under review: Nc1cccc(-c2cc(O)c3c(ccc4[nH]ccc43)n2)c1 . Reported IC50?
Response line: 50

---

Reported pIC50 is given for each of the following molecules.
system: NCI-H295R; test: Cytotoxicity against human H295R cells by MTT assay; assay type: functional, cell-based
# pIC50: negative log10 of molar concentration; output just the value

• Oc1cc(-c2cccc(Br)c2)nc2ccc3[nH]ccc3c12 = 5.30
• Oc1cc(-c2cccs2)nc2ccc3[nH]ccc3c12 = 5.30

Consider the additional molecule presented here.
Prompt line: Recall the recorded pIC50 for CC[C@]1(O)C[C@H]2CN(CCc3c([nH]c4ccccc34)[C@@](C(=O)OC)(c3cc4c(cc3OC)N(C=O)[C@H]3[C@@](O)(C(=O)OC)[C@H](OC(C)=O)[C@]5(CC)C=CCN6CC[C@]43[C@@H]65)C2)C1 with NCI-H295R and state it.
Response line: 7.05
